Cited source for all entries: ChEMBL document CHEMBL4041467

System: Streptococcus pyogenes
Experiment: Antibacterial activity against Mef-mediated macrolide efflux resistant Streptococcus pyogenes by agar microdilution method
Format: functional
# MIC annotations
State just the number; it will be interpreted in µg/mL.

Example cases with answers are listed next.
# Compound, Assayed target, Measured result
measured = [
    ("C=CCO[C@]1(C)C[C@@H](C)NC(=O)[C@H](C)[C@@H](O)[C@](C)(O)[C@@H](CC)OC(=O)[C@H](C)[C@@H](OC(=O)CCN2CCN(C(=O)c3ccco3)CC2)[C@H](C)[C@H]1O[C@@H]1O[C@H](C)C[C@H](N(C)C)[C@H]1O", "Streptococcus pyogenes", 4),
    ("CC[C@H]1OC(=O)[C@H](C)[C@@H](OC(=O)CCNCCNc2cc3c(=O)c(C(=O)O)cn(C4CC4)c3cc2Cl)[C@H](C)[C@@H](O[C@@H]2O[C@H](C)C[C@H](N(C)C)[C@H]2O)[C@](C)(OC/C=C/c2cccc3ncccc23)C[C@@H](C)NC(=O)[C@H](C)[C@@H](O)[C@]1(C)O", "Streptococcus pyogenes", 4),
]

Requested read-out: MIC. Entry: C=CCO[C@]1(C)C[C@@H](C)NC(=O)[C@H](C)[C@@H](O)[C@](C)(O)[C@@H](CC)OC(=O)[C@H](C)[C@@H](OC(=O)CCNC(C)Cc2ccc([N+](=O)[O-])cc2)[C@H](C)[C@H]1O[C@@H]1O[C@H](C)C[C@H](N(C)C)[C@H]1O (some centres undefined)
1

MIC lookup needed for C=CCO[C@]1(C)C[C@@H](C)NC(=O)[C@H](C)[C@@H](O)[C@](C)(O)[C@@H](CC)OC(=O)[C@H](C)[C@@H](OC(=O)CCNC(C)C(=O)Nc2ccccc2)[C@H](C)[C@H]1O[C@@H]1O[C@H](C)C[C@H](N(C)C)[C@H]1O (some centres undefined) , thanks.
2

Fill in the blank: the reported MIC of `C=CCO[C@]1(C)C[C@@H](C)NC(=O)[C@H](C)[C@@H](O)[C@](C)(O)[C@@H](CC)OC(=O)[C@H](C)[C@@H](OC(=O)CCN2CCN(c3ccc4c(c3)c(=O)c(C(=O)O)cn4C3CC3)CC2)[C@H](C)[C@H]1O[C@@H]1O[C@H](C)C[C@H](N(C)C)[C@H]1O` is ____.
16

Item `CC[C@H]1OC(=O)[C@H](C)C(=O)[C@H](C)[C@@H](O[C@@H]2O[C@H](C)C[C@H](N(C)C)[C@H]2O)[C@](C)(OC)C[C@@H](C)C(=O)[C@H](C)[C@H]2N(CCCCn3cnc(-c4cccnc4)c3)C(=O)O[C@]12C` has what recorded MIC?
0.25

Look up MIC: `C=CCO[C@]1(C)C[C@@H](C)NC(=O)[C@H](C)[C@@H](O)[C@](C)(O)[C@@H](CC)OC(=O)[C@H](C)[C@@H](OC(=O)CCNCCNc2cc3c(=O)c(C(=O)O)cn(C4CC4)c3cc2Cl)[C@H](C)[C@H]1O[C@@H]1O[C@H](C)C[C@H](N(C)C)[C@H]1O`
0.25

----------
Entries and their MIC values follow.
Tested on: Staphylococcus aureus
Test: Antibacterial activity against inducibly macrolide/lincosamide/streptogramin B-resistant Staphylococcus aureus by agar microdilution method
Format: functional
The reply should be a number in µg/mL, with the unit left off.

For orientation, consider the following solved cases.
# Compound structure, Units label, MIC
data = [
    ("C=CCO[C@]1(C)C[C@@H](C)NC(=O)[C@H](C)[C@@H](O)[C@](C)(O)[C@@H](CC)OC(=O)[C@H](C)[C@@H](OC(=O)CCN2CCN(C(=O)c3ccco3)CC2)[C@H](C)[C@H]1O[C@@H]1O[C@H](C)C[C@H](N(C)C)[C@H]1O", "µg/mL", 2),
    ("C=CCO[C@]1(C)C[C@@H](C)NC(=O)[C@H](C)[C@@H](O)[C@](C)(O)[C@@H](CC)OC(=O)[C@H](C)[C@@H](OC(=O)CCNCCNc2cc3c(cc2F)c(=O)c(C(=O)O)cn3C2CC2)[C@H](C)[C@H]1O[C@@H]1O[C@H](C)C[C@H](N(C)C)[C@H]1O", "µg/mL", 0.25),
]

// query MIC value for entry `C=CCO[C@]1(C)C[C@@H](C)NC(=O)[C@H](C)[C@@H](O)[C@](C)(O)[C@@H](CC)OC(=O)[C@H](C)[C@@H](OC(=O)CCN2CCN(c3cc4c(=O)c(C(=O)O)cn(C5CC5)c4cc3Cl)CC2)[C@H](C)[C@H]1O[C@@H]1O[C@H](C)C[C@H](N(C)C)[C@H]1O`
0.25

Which measured MIC value corresponds to `CC[C@H]1OC(=O)[C@H](C)[C@@H](OC(=O)CCNCCNc2cc3c(=O)c(C(=O)O)cn(C4CC4)c3cc2Cl)[C@H](C)[C@@H](O[C@@H]2O[C@H](C)C[C@H](N(C)C)[C@H]2O)[C@](C)(OC/C=C/c2ccc3ncccc3c2)C[C@@H](C)NC(=O)[C@H](C)[C@@H](O)[C@]1(C)O` ?
0.25
